details: in n-propanol, 288.15 K
Experimental Readout: solubility (mole fraction)
Quick one: just the number, no unit, thanks!

Request: Give solubility (mole fraction) for CC1=C(C(=O)O)N2C(=O)[C@@H](NC(=O)[C@H](N)C3=CCC=CC3)[C@H]2SC1
Result: 0.000214

###

conditions: in n-propanol, 298.15 K
Experimental Readout: solubility (mole fraction)

Request: Name the recorded solubility (mole fraction) of the compound listed here: CC1=C(C(=O)O)N2C(=O)[C@@H](NC(=O)[C@H](N)C3=CCC=CC3)[C@H]2SC1
Result: 0.000319

###

settings: in ethanol, 283.15 K
Experimental Readout: solubility (mole fraction)
Lab note: jot down the number only; don't add units.

Request: Hello, please tell me recorded solubility (mole fraction) for this one: CC1=C(C(=O)O)N2C(=O)[C@@H](NC(=O)[C@H](N)C3=CCC=CC3)[C@H]2SC1
Result: 0.000187

Hey, just so you know, these numbers are from BigSolDB 2.1.
